pIC50: −log10 of the molar value.
Test system SRC (Homo sapiens (Human), UniProt P12931), pIC50 listed for each of the molecules.

[[record]]
molecule = "C=CC(=O)Nc1cccc(C)c1Nc1nc(Nc2ccc(N3CCN(C)CC3)cc2)ncc1Cl"
measuredon = "SRC (Homo sapiens (Human), UniProt P12931)"
recordedvalue = "5.00 to 6.00"

[[record]]
molecule = "C=CC(=O)Nc1ccccc1Nc1nc(Nc2ccc(N3CCN(C)CC3)cc2)ncc1-c1ccc(OC)nc1"
measuredon = "SRC (Homo sapiens (Human), UniProt P12931)"
recordedvalue = "8.00 to 9.00"

[[record]]
molecule = "C=CC(=O)Nc1ccccc1Nc1nc(Nc2ccc(N3CCN(C)CC3)cc2)ncc1CC"
measuredon = "SRC (Homo sapiens (Human), UniProt P12931)"
recordedvalue = "8.00 to 9.00"

[[record]]
molecule = "C=CC(=O)Nc1ccccc1Nc1nc(Nc2ccc(N3CCN(C)CC3)cc2)ncc1C(=O)Nc1c(C)cc(C(=O)O)cc1Cl"
measuredon = "SRC (Homo sapiens (Human), UniProt P12931)"
recordedvalue = "< 5.00"


Short answer please: pIC50, SRC (Homo sapiens (Human), UniProt P12931), entry C=CC(=O)Nc1ccc(C)cc1Nc1nc(Nc2ccc(N3CCN(C)CC3)cc2)ncc1C(=O)Nc1c(C)cccc1Cl 7.00 to 8.00

Short answer please: pIC50, SRC (Homo sapiens (Human), UniProt P12931), entry C=CC(=O)Nc1ccccc1Nc1nc(Nc2ccc(N3CCN(C)CC3)cc2)nc(N)c1Cl 7.00 to 8.00

---

Test system YES1 (Homo sapiens (Human)), IC50 listed for each of the compounds.

// known answers, use as guide
[[record]]
compound = "C=CC(=O)Nc1ccccc1Nc1nc(Nc2ccc(N3CCN(C)CC3)cc2)nc2sccc12 [Compound 14]"
reportedmetric = "IC50"
recordedvalue = "10 to 100 nM"

[[record]]
compound = "C=CC(=O)Nc1cccc(C)c1Nc1nc(Nc2ccc(N3CCN(C)CC3)cc2)ncc1Cl [Compound 31]"
reportedmetric = "IC50"
recordedvalue = "100 to 1000 nM"

[[record]]
compound = "C=CC(=O)Nc1ccccc1Nc1nc(Nc2ccc(N3CCN(C)CC3)cc2)ncc1CC [Compound 2]"
reportedmetric = "IC50"
recordedvalue = "1 to 10 nM"

[[record]]
compound = "C=CC(=O)Nc1ccccc1Nc1nc(Nc2ccc(N3CCN(C)CC3)cc2)ncc1C(=O)Nc1c(C)cccc1C [Compound 28]"
reportedmetric = "IC50"
recordedvalue = "< 1 nM"

[[record]]
compound = "C=CC(=O)Nc1ccccc1Nc1nc(Nc2ccc(N3CCN(C)CC3)cc2)ncc1C [Compound 4]"
reportedmetric = "IC50"
recordedvalue = "1 to 10 nM"


Short answer please: IC50, YES1 (Homo sapiens (Human)), entry C=CC(=O)Nc1ccccc1Nc1nc(Nc2ccc(N3CCN(C)CC3)cc2)nc(N)c1Cl [Compound 13] 1 to 10 nM

---

# measuredOn: SRC (Homo sapiens (Human))
# Sequence (P12931 whole entry): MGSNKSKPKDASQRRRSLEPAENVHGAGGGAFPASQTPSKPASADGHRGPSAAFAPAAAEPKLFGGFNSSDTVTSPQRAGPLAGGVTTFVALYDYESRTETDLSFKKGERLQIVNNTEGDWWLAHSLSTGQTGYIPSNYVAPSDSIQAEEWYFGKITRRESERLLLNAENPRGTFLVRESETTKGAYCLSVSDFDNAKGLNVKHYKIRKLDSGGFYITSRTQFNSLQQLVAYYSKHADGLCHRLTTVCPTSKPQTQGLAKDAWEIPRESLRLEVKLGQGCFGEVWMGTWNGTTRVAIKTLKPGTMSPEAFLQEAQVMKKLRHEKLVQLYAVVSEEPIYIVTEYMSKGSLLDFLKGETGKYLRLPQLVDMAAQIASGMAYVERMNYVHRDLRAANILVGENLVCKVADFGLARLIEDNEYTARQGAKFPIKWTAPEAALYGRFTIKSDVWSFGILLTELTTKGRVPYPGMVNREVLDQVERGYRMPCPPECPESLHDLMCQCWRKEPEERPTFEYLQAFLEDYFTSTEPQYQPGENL
pIC50: −log10 of the molar value.
reportedMetric: pIC50

// known answers, use as guide
[[record]]
molecule = "C=CC(=O)Nc1ccccc1Nc1nc(Nc2ccc(N3CCN(C)CC3)cc2)ncc1C"
measuredon = "SRC (Homo sapiens (Human))"
reportedmetric = "pIC50"
recordedvalue = "8.00 to 9.00"

[[record]]
molecule = "C=CC(=O)Nc1ccccc1Nc1nc(Nc2ccc(N3CCN(C)CC3)cc2)ncc1-c1cccs1"
measuredon = "SRC (Homo sapiens (Human))"
reportedmetric = "pIC50"
recordedvalue = "8.00 to 9.00"

[[record]]
molecule = "C=CC(=O)Nc1ccccc1Nc1nc(Nc2ccc(N3CCN(C)CC3)cc2)ncc1Cl [SM1-71, reference compound]"
measuredon = "SRC (Homo sapiens (Human))"
reportedmetric = "pIC50"
recordedvalue = "8.00 to 9.00"

[[record]]
molecule = "C=CC(=O)Nc1cccc(F)c1Nc1nc(Nc2ccc(N3CCN(C)CC3)cc2)ncc1C(=O)Nc1c(C)cccc1Cl"
measuredon = "SRC (Homo sapiens (Human))"
reportedmetric = "pIC50"
recordedvalue = "8.00 to 9.00"


Short answer please: pIC50, SRC (Homo sapiens (Human)), entry C=CC(=O)Nc1ccccc1Nc1nc(Nc2ccc(N3CCN(C)CC3)cc2)nc2sccc12 6.00 to 7.00
